Would you mind telling me the reported inhibition of each entry?
test: inhibitors of TNFa-induced NFkB p65 translocation, primary screen, imaging, HUVEC, MLSMR starter and 10KST1 sets (AID 438);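 further: compound added about 3h40 before a 20 min TNFalpha stimulation; signal is the nuclear over cytoplasmic p65 intensity ratio per well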
condition_context: HUVEC TNFa-induced p65 nuclear translocation; at 2 µM, stronger effect = higher value, 0% TNFa-plus-vehicle, 100% no-TNFa wells
Report as a plain number; the unit % is understood.

stdin: Can you share its inhibition? I mean this molecule: CCCCSCCCNC(=O)CS(=O)Cc1nc(-c2cccc(C)c2)oc1C (stereo not given)
stdout: -9.6

stdin: Can you share its inhibition? I mean this molecule: CCOC(=O)c1ccc(N2C(=O)CC(N3CCN(C/C=C/c4ccccc4)CC3)C2=O)cc1 (stereo not given)
stdout: -4.9

stdin: Can you share its inhibition? I mean this molecule: COc1ccc(C(=O)CSc2nnc(C3CCCCC3)n2N)c(OC)c1
stdout: -11.9

stdin: Can you share its inhibition? I mean this molecule: CC(=O)Nc1ccc(OC(=O)CC2SC(=O)NC2=O)cc1 (stereo not given)
stdout: -6.8

stdin: Can you share its inhibition? I mean this molecule: COc1ccc(-c2nn3c(-c4cccc(C)c4)nnc3s2)cc1OC
stdout: 10.3

stdin: Can you share its inhibition? I mean this molecule: O=C(CCS(=O)(=O)c1cc(Br)cc2c1N(C(=O)C1CC1)CC2)NCC1CCCO1 (stereo not given)
stdout: -0.6

stdin: Can you share its inhibition? I mean this molecule: CC1(C)Cc2c(C#N)c(N3CCN(C(=O)c4ccccc4)CC3)nc(-c3ccco3)c2CS1
stdout: -9

stdin: Can you share its inhibition? I mean this molecule: Cc1cc(=O)oc2c1c(C)nn2-c1ccc(C(=O)OC(C)C)cc1
stdout: -2.9

stdin: Can you share its inhibition? I mean this molecule: c1ccc(-c2ccccc2OCCn2cncn2)cc1
stdout: -12.5

stdin: Can you share its inhibition? I mean this molecule: CCN(CC)CCN1C(=O)C(O)=C(C(C)=O)C1c1ccc(OC)c(OC)c1 (stereo not given)
stdout: 0.4
